// data source = paper PMC6852375

# koff values compiled below
# experimental.target: T1, Murine RANK-Fc (mouse, UniProt O35305 31-214)
# T1 sequence (looked up): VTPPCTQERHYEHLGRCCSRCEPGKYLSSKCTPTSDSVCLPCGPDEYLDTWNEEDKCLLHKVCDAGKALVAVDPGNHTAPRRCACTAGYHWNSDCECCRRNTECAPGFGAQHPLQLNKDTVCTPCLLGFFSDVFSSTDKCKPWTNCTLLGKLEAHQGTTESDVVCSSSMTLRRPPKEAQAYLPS
# assay.name: SPR
The reply should contain only the number, in s⁻¹.

What measured koff goes with RANKL_Q236N (ligand, mouse, UniProt O35235 160-316, looked up) EAQPFAHLTINAASIPSGSHKVTLSSWYHDRGWAKISNMTLSNGKLRVNQDGFYYLYANICFRHHETSGSVPTDYLNLMVYVVKTSIKIPSSHNLMKGGSTKNWSGNSEFHFYSINVGGFFKLRAGEEISIQVSNPSLLDPDQDATYFGAFKVQDID ?
0.00017

What measured koff goes with RANKL_Q236P (ligand, mouse, UniProt O35235 160-316, looked up) EAQPFAHLTINAASIPSGSHKVTLSSWYHDRGWAKISNMTLSNGKLRVNQDGFYYLYANICFRHHETSGSVPTDYLPLMVYVVKTSIKIPSSHNLMKGGSTKNWSGNSEFHFYSINVGGFFKLRAGEEISIQVSNPSLLDPDQDATYFGAFKVQDID ?
0.00012
